# Method Description: JC-1 mitochondrial signal, unstimulated MM1S myeloma – cell-based, JC-1 fluorescence, 24 h, 100 nL compound, profiling panel (AID 1170); also: test concentration not given here
# Experimental Setup: MM1S mitochondrial potential, higher = more signal
z-score overview
Could you respond with only the numeric value?

Molecule	Measured Value
C=C[C@H](OC)[C@@H](OC(=O)Nc1ccc(SC)cc1)c1ccc(OCCO)cc1	-0.887
COC(=O)[C@@]1(Cc2ccc(F)cc2)[C@H]2c3cc(C(=O)N(C)C)n(CCCNc4ccc(C(F)(F)F)cc4Cl)c3C[C@H]2CN1C(=O)c1ccccc1	-2.12
C[C@]1(C(=O)NCC(F)(F)F)c2ccccc2C(=O)N(Cc2cc(F)cc(C(F)(F)F)c2)[C@H]1c1ccc(CO)cc1	0.206
C=CCOC(=O)[C@@H]1[C@H]2C(=O)O[C@H](c3ccccc3)[C@H](c3ccccc3)N2[C@H](c2ccc(OCCOC(=O)[C@H]3C[C@H]4C(=O)N[C@@H](CC(C)C)C(=O)N4[C@H]3c3cccc(OCCO)c3)cc2)[C@@]12C(=O)Nc1ccc(I)cc12	-1.2
CN1C(=O)C2C=CC(C(O)c3ccccc3)N(NC(=O)OC(C)(C)C)C2C1=O (configuration not stated)	0.32

Req: State its z-score for this molecule: C=CCN1Cc2ccccc2C[C@]2(N=C(c3ccc(OCCCO)cc3)O[C@@H]2c2ccccc2)C1=O
Resp: -0.762

Req: Please report z-score for the following molecule: C=C(C)[C@@H]1CC=C(C(O)C2C=CC3C(=O)N(Cc4ccccc4)C(=O)C3N2n2cnnc2)CC1 (some centres not stated)
Resp: -2.13

Req: For the molecule COc1ccc(C#Cc2ccc3c(c2)[C@]2(C(=O)N3)[C@H](C(=O)N3CCc4cc(OC)c(OC)cc4C3)[C@H]3C(=O)O[C@H](c4ccccc4)[C@H](c4ccccc4)N3[C@@H]2c2ccc(OCCO)cc2)cc1 , give its measured z-score value.
Resp: -1.5

Req: Dear colleague, please send me the reported z-score for COCCn1c(C(=O)N2CCCC2)cc2c1C[C@H]1CN(C(=O)c3ccccc3)[C@@](Cc3ccc(OC)cc3)(C(=O)OC)[C@@H]21 when you can.
Resp: -0.828

Req: Identify z-score associated with the molecule COc1ccc(C#Cc2ccc3c(c2)[C@]2(C(=O)N3)[C@H](C(=O)N3CCN(c4ncccn4)CC3)[C@H]3C(=O)O[C@H](c4ccccc4)[C@H](c4ccccc4)N3[C@@H]2c2ccc(O)cc2)cc1
Resp: -0.427

Req: Annotate the molecule COC(=O)[C@@]1(Cc2ccccc2)[C@H]2c3cc(C(=O)N(C)C)n(Cc4cc(F)c(F)c(F)c4)c3C[C@H]2CN1C(=O)c1ccccc1 with its measured z-score.
Resp: -0.951

Req: Quickly give me recorded z-score for COc1cc(CO)cc(I)c1O[C@H]1C=C(C(=O)NCCO)C[C@@H](N(CCc2cccc(F)c2)C(=O)CCC2CCCC2)[C@@H]1O
Resp: -1.96

Data origin, for the record: PubChem BioAssay
